assay procedure: Edaravone solubility, slurry/shake-flask method with spectrophotometric determination at 243 nm
Type: physicochemical
experimental context: 30 °C, organic solvent or mixture, thermodynamic from solid, neat DES choline chloride + glycerol (GLE) 1:4 molar ratio, 303.15 K; read-out: cE solubility concentration
measurement kind: solubility at 24 h
Please answer in the form of a number followed by its unit of measurement.

# input Entry `CC1=NN(c2ccccc2)C(=O)C1` : reported solubility at 24 h = ?
# output 246 mg/mL

* * *

assay procedure: Edaravone solubility, slurry/shake-flask method with spectrophotometric determination at 243 nm
Type: physicochemical
experimental context: neat deep eutectic solvent, 35 °C, organic solvent or mixture, thermodynamic from solid, neat DES choline chloride + ethylene glycol (ETA) 1:4 molar ratio, 308.15 K; read-out: cE solubility concentration
measurement kind: solubility at 24 h (mg/mL)
State just the number; it will be interpreted in mg/mL.

# input Entry `CC1=NN(c2ccccc2)C(=O)C1` : reported solubility at 24 h = ?
# output 467

* * *

assay procedure: Edaravone solubility, slurry/shake-flask method with spectrophotometric determination at 243 nm
Assay type: physicochemical
experimental context: 25 °C, aqueous with cosolvent or surfactant or cyclodextrin, thermodynamic from solid, water + GLE (ChCl:GL 1:2), x*GLE = 0.8, 298.15 K; read-out: cE solubility concentration
measurement kind: solubility at 24 h (mg/mL)
State just the number; it will be interpreted in mg/mL.

# input Entry `CC1=NN(c2ccccc2)C(=O)C1` : reported solubility at 24 h = ?
# output 266
